- Test system: Lefty1
- Assay explanation: Lefty1 protein binding to printed compounds – biochemical, small-molecule microarray, 635/667 nm fluorescence, primary screen (AID 1139)
- Measurement conditions: fluorescence 635/667, higher = more signal
Reported property: composite z-score

{"columns": ["Compound", "Result"],
 "data": [
  ["C=CC[C@]1(C(=O)NCC(O)CO)N=C(c2ccc(OCCCO)cc2)O[C@H]1c1ccccc1N=[N+]=[N-] (some centres not stated)", -0.661],
  ["COc1ccc([Si](C)(C)[C@H]2[C@H](CCO)O[C@@]3(C(=O)N(Cc4cccc(N5CCOC5=O)c4)c4ccccc43)[C@@H]2C)cc1", 0.729],
  ["CCCN1C(=O)[C@@]2(Cc3ccccc3)N=C(c3ccc(OCCCO)cc3)O[C@H]2c2ccccc21", 0.757],
  ["COc1ccc([Si](C)(C)[C@H]2[C@H](CC(=O)N3CCC[C@H]3CO)O[C@@]3(C(=O)N(Cc4ccc(N5C(=O)c6cccc7cccc5c67)cc4)c4ccccc43)[C@@H]2C)cc1", 1.48],
  ["CC(C)c1ccc(NN2C(C(O)c3ccccn3)C=CC3C(=O)N(c4ccccc4)C(=O)C32)cc1 (configuration not stated)", 1.18],
  ["CC(C)c1ccc(NN2C(C(O)c3cccs3)C=CC3C(=O)N(c4ccccc4)C(=O)C32)cc1 (configuration not stated)", 0.0247],
  ["N#Cc1ccc(NN2C(C(O)c3ccccc3)C=CC3C(=O)N(c4ccccc4)C(=O)C32)cc1 (configuration not stated)", -0.272]
]}

----------
- Assay explanation: change in splice reporter luminescence, either direction, cell-based, HEK293, spliceosome inhibition project, primary screen (AID 1101);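 further: HEK293 cells carrying a splicing-competent luciferase reporter gene; test concentration not given here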
- Measurement conditions: HEK293 splicing luciferase reporter, 24 h, higher = more signal, called active from +8 up or from −8 down
Tag: Satisfied if measured z-score is not below -0.02, Not satisfied if it is.

{"columns": ["Molecule", "Assigned category"],
 "data": [
  ["O=C1O[C@@H](c2ccccc2)[C@@H](c2ccccc2)N2[C@@H](c3ccc(O)cc3)[C@]3(C(=O)Nc4ccc(C#CC5=CCCCC5)cc43)[C@@H](C(=O)Nc3nc4ccccc4s3)[C@H]12", "Not satisfied"],
  ["O=C(O)[C@]1(CCS(=O)(=O)c2ccccc2)N=C(c2ccc(OCCCO)cc2)O[C@@H]1c1ccccc1", "Satisfied"],
  ["C=CCC(OC(C)=O)[C@@H]1[C@@H](N(Cc2ccc(-c3ccccc3)cc2)C(=O)c2cccc3ccccc23)c2cc(OCCCO)ccc2N1C(=O)c1ccc2ccccc2n1 (stereo partly specified)", "Not satisfied"],
  ["C=CCC(OC(C)=O)[C@@H]1[C@@H](N(Cc2ccc(-c3ccccc3)cc2)C(=O)Cc2ccc(OC)cc2)c2cc(OCCCO)ccc2N1C(=O)c1ccc(-c2ccccc2)cc1 (stereo partly specified)", "Not satisfied"],
  ["C=CCNC(=O)[C@H]1[C@@H]2C(=O)O[C@@H](c3ccccc3)[C@@H](c3ccccc3)N2[C@@H](c2ccc(O)cc2)[C@]12C(=O)N(C(=O)OCCOC)c1ccc(C#CC3(O)CCCCCC3)cc12", "Satisfied"],
  ["COC(=O)[C@H]1N=C(c2ccc(OCCCO)cc2)O[C@H]1c1ccccc1CN=[N+]=[N-]", "Satisfied"]
]}

----------
- System: Focal adhesion kinase 1 (Homo sapiens) (UniProt Q05397)
- Sequence (Q05397 whole entry, looked up): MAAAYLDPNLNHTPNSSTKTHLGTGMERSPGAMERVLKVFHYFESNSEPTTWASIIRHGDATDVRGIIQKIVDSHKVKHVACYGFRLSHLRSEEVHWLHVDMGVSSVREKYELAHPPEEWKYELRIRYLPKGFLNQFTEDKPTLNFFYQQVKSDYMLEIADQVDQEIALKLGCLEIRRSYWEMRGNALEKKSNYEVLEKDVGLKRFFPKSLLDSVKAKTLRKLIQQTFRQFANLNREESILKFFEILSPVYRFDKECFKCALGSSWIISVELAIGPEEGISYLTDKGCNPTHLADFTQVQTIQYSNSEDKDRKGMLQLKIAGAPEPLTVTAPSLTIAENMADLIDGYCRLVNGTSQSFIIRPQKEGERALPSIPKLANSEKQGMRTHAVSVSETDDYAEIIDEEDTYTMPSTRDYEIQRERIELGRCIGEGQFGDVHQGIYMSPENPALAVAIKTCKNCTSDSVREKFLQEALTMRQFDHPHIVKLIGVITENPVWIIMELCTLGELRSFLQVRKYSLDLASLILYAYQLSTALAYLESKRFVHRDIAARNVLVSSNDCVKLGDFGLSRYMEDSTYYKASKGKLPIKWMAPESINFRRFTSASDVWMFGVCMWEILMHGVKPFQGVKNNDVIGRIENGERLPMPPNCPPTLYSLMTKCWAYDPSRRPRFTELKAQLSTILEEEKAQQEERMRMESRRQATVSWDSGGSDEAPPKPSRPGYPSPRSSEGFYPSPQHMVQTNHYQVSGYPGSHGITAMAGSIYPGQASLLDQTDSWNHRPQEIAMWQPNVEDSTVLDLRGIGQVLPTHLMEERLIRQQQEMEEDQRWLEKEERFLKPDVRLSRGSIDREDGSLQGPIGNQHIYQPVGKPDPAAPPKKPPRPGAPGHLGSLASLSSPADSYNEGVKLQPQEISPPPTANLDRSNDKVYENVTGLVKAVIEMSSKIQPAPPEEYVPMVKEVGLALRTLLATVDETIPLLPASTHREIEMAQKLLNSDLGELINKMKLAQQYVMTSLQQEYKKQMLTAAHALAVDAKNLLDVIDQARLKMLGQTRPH
- Assay explanation: PTK2 protein binding on printed compound slides – biochemical, small-molecule microarray, 635/667 nm fluorescence, BSA, DTT, primary screen (AID 1130);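 further: composite of spot emission at 667 nm and signal to noise over triplicate slides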
- Measurement conditions: 635 nm fluorescence, higher = more signal

{"columns": ["Compound", "composite z-score"],
 "data": [
  ["CC(C)C[C@H]1NC(=O)[C@H](C)NC(=O)[C@@]23C(=O)N[C@@H](Cc4ccccc4)C2[C@H](C)[C@@]2(C)O[C@H]2C3/C=C/C/C=C\\CNC1=O (some centres undefined)", -0.0739],
  ["C=C(C)[C@@H]1CC=C(C(O)C2C=CC3C(=O)N(C4CCCCC4)C(=O)C3N2Nc2ccc(OC)cc2)CC1 (some centres undefined)", 0.589],
  ["CC(C)c1ccc(NN2C(C(O)c3ccccn3)C=CC3C(=O)N(c4ccccc4)C(=O)C32)cc1 (centres undefined)", 0.405],
  ["C=CCC(OC(C)=O)[C@@H]1[C@@H](N(Cc2cccc3ccccc23)C(=O)c2ccc(C)cc2)c2cc(OCCCO)ccc2N1C(=O)c1ccc2ccccc2c1 (some centres undefined)", 0.0096]
]}
